Recorded values, source patent US7902181B2.

assayed_target: Recombinant Human (rh) DPP1 (Homo sapiens)
Sequence (P53634 25-463): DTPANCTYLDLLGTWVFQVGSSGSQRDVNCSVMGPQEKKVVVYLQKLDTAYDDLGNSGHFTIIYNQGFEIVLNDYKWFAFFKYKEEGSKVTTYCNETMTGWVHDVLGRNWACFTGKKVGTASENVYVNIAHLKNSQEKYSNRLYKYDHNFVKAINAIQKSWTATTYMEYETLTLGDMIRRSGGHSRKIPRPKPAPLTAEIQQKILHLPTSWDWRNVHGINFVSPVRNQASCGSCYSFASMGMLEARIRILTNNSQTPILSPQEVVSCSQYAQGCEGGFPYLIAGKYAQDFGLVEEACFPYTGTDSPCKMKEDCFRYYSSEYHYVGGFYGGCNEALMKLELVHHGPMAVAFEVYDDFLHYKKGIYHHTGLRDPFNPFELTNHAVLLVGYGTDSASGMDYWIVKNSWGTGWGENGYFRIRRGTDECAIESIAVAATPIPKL
test_details: Fluorescence Assay for Recombinant Human (rh) DPP1
Assay type: biochemical
condition_set: rhDPP1; substrate H-Gly-Arg-AMC; pH5.0; 30 min pre-incubation, 60 min reaction at 22° C.; highest concentration 10 μM; read-out: DPP1 activity, pIC50 (converted)
Counter-ions that a name gives are not always drawn.
measurement_name: IC50 (nM)

Please review the following examples before continuing.
molecule | measurement_name | measured_result
CN(C)c1ncc(-c2ccc(C[C@@H](C#N)NC(=O)[C@@H]3CCCCN3)cc2)cn1 [Example 37, trifluoroacetate] | IC50 | 316
N#C[C@H](Cc1ccc(-c2ccccc2)cc1)NC(=O)[C@@H]1CCCCN1 | IC50 | 126

[I] COc1ccc(-c2ccc(C[C@@H](C#N)NC(=O)[C@@H]3CCCCN3)cc2)cc1 [Example 25, trifluoroacetate]
[II] CN(C)S(=O)(=O)c1ccc(-c2ccc(C[C@@H](C#N)NC(=O)[C@@H]3CCCCN3)cn2)cc1 [Example 80, Trifluoroacetate]
Which entry shows the lesser value of IC50 here, I or II ? Mark your selection by writing its label.
II

---

assayed_target: Recombinant Human (rh) DPP1 (Homo sapiens)
test_details: Fluorescence Assay for Recombinant Human (rh) DPP1
Format: biochemical
condition_set: rhDPP1; substrate H-Gly-Arg-AMC; pH5.0; 30 min pre-incubation, 60 min reaction at 22° C.; highest concentration 10 μM; read-out: DPP1 activity, pIC50 (converted)
Counter-ions that a name gives are not always drawn.
measurement_name: IC50 (nM)

compound | IC50 / nM
CSc1cc(-c2ccc(C[C@@H](C#N)NC(=O)[C@@H]3CCCCN3)cc2)ccc1C#N | 3.16
Cc1ccccc1-c1ccc(C[C@@H](C#N)NC(=O)[C@@H]2CCCCN2)cc1 [Example 50, trifluoroacetate] | 2000
N#C[C@H](Cc1ccc(-c2ccccc2O)cc1)NC(=O)[C@@H]1CCCCN1 [Example 48, trifluoroacetate] | 1580
CN1CCN(S(=O)(=O)c2ccc(-c3ccc(C[C@@H](C#N)NC(=O)[C@@H]4CCCCN4)cc3)cc2)CC1 [Example 95, Trifluoroacetate] | 3.16
N#Cc1ccc(-c2ccc(C[C@@H](C#N)NC(=O)[C@@H]3CCCCN3)cn2)cc1 [Example 77, Trifluoroacetate] | 31.6
CN1CCCN(S(=O)(=O)c2ccc(-c3ccc(CC(C#N)NC(=O)[C@@H]4CCCCN4)cc3)cc2)CC1 (some centres unmarked) [Example 108, Ditrifluoroacetate] | 31.6
COc1ncccc1-c1ccc(C[C@@H](C#N)NC(=O)[C@@H]2CCCCN2)cc1 [Example 40, trifluoroacetate] | 316
N#CC1CCN(S(=O)(=O)c2ccc(-c3ccc(C[C@@H](C#N)NC(=O)[C@@H]4CCCCN4)cc3)cc2)CC1 [Example 91, Trifluoroacetate] | 12.6
N#C[C@H](Cc1ccc(-c2ccccc2OCc2ccccc2)cc1)NC(=O)[C@@H]1CCCCN1 [Example 51, trifluoroacetate] | 2000
COc1ccc(-c2ccc(C[C@@H](C#N)NC(=O)[C@@H]3CCCCN3)cc2)cc1F | 158

[I] N#C[C@H](Cc1ccc(-c2ccc(C(F)(F)F)cc2)cc1)NC(=O)[C@@H]1CCCCN1 [Example 82, Trifluoroacetate]
[II] CS(=O)(=O)c1ccc(-c2ccc(C[C@@H](C#N)NC(=O)[C@@H]3CCCCN3)cc2)cc1C#N
When their IC50 values are compared, which is larger, I or II ? Mark your selection by writing its label.
II
(II: 10 nM, I: 5.01 nM)

[a] N#C[C@H](Cc1ccc(-c2ccc(C(=O)N3CCCC3)cc2)cc1)NC(=O)[C@@H]1CCCCN1 [Example 75, Trifluoroacetate]
[b] N#C[C@H](Cc1ccc(-c2ccc3c(c2)SCC(=O)N3)cc1)NC(=O)[C@@H]1CCCCN1
Which entry shows the lesser value of IC50 here, a or b ? Mark your selection by writing its label.
b
(b: 15.8 nM, a: 200 nM)
